molecular target: Human orexin receptor type 2 (Homo sapiens); construct: expressed in transfected cells; host or cells: CHO cells (transient expression); assay: Test 1: Evaluation of agonist activity for orexin receptor type 2 (aequorin luminescence, intracellular calcium mobilization in CHO cells); type: cell-based; details: relative percentage of luminescence for the luminescence (100%) of Orexin A (100 pM); CHO cells transiently expressing human orexin receptor type 2 and apoaequorin; Orexin A Lot. 641114
Sequence (O43614 whole entry): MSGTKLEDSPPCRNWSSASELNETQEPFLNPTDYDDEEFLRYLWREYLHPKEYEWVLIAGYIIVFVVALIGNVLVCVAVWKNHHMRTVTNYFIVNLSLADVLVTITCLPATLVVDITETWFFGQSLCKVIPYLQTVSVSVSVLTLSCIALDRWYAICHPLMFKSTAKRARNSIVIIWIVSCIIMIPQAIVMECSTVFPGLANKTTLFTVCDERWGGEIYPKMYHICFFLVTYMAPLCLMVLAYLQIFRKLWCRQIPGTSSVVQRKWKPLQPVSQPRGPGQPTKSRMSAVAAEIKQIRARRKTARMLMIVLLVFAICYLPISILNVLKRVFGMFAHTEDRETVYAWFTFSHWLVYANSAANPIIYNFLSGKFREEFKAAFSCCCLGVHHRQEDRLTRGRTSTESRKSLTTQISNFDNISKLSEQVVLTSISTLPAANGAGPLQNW
property: agonist activity (%)

In [3]: df
Out[3]:
                                   compound              property  observed_value
0  CCN1CCN([C@H]2CCCC[C@H]2NC(=O)N2CCC(c3ccc(C)cc3)CC2)CC1 (racemic)  agonist activity (%)              58
1  COc1ccc(C2CCN(C(=O)N[C@@H]3[C@@H](N4CCN(C(C)C)CC4)CCCC3(F)F)CC2)nc1 (racemic)  agonist activity (%)             143
2  Cc1cnc(C2CCN(C(=O)N[C@@H]3[C@@H](N4CCN(C(C)C)CC4)CCCC3(F)F)CC2)nc1 (racemic)  agonist activity (%)             146
3  Cc1ccc(C2CCN(C(=O)N[C@H]3CCCC[C@@H]3N3CCN(C(C)C)CC3)CC2)cc1 (racemic)  agonist activity (%)             137
4  CC(C)N1CCN([C@H]2CCCC(F)(F)[C@@H]2NC(=O)N2CCC(C3CCCCC3)CC2)CC1 (racemic)  agonist activity (%)             165
5  Cc1nc(C2(C)CCN(C(=O)O[C@@H]3[C@@H](N4CCN(C(C)C)CC4)CCCC3(F)F)CC2)no1 (racemic)  agonist activity (%)             213
6  CC(C)N1CCN([C@H]2CCCC(F)(F)[C@@H]2OC(=O)N2CCC(C)(c3cc(C4CC4)on3)CC2)CC1 (racemic)  agonist activity (%)             211
7  Cc1nc(C2(C)CCN(C(=O)N[C@H]3CCCC[C@@H]3N3CCN(C(C)C)CC3)CC2)no1 (racemic)  agonist activity (%)              67

[P] CC(C)N1CCN([C@H]2CCCC(F)(F)[C@@H]2NC(=O)N2CCC(C)(c3cc(C4CC4)on3)CC2)CC1 [Example 25]
[Q] CO[C@H]1CCC[C@H](N2CCN(C(C)C)CC2)[C@H]1NC(=O)N1CCC(c2ccc(C)cc2)CC1 (racemic)
(Q) Looking only at measured agonist activity (%), which entry is lower, P or Q ? Respond with the label that goes with your answer.
(A) Q
(Q: 62%, P: 165%)

[I] CC(C)N1CCN([C@H]2CCCC(F)(F)[C@@H]2NC(=O)N2CCC(C)(c3ccccc3)CC2)CC1 (racemic)
[II] CC(C)c1ccc(C2=CCCCC2NC(=O)N2CCC(C)(c3cc(C4CC4)on3)CC2)cn1 (racemic)
[III] Cc1ccc(C2CC=C(C(=O)O[C@@H]3[C@@H](N4CCN(C(C)C)CC4)CCCC3(F)F)CC2)cc1 (mixture of isomers)
(Q) Order the records, beginning with the lowest agonist activity (%) and ending with the highest. Order the labels as requested and give them as your answer.
(A) III, II, I
(III: 36%, II: 62%, I: 157%)
